B1: NF2 (merlin) isoform 7, human, full length (507 aa, lacks exons 2-3 = isoform-1 residues 39-121; exon-16 C-terminus), P35240-4 (parent)
chain: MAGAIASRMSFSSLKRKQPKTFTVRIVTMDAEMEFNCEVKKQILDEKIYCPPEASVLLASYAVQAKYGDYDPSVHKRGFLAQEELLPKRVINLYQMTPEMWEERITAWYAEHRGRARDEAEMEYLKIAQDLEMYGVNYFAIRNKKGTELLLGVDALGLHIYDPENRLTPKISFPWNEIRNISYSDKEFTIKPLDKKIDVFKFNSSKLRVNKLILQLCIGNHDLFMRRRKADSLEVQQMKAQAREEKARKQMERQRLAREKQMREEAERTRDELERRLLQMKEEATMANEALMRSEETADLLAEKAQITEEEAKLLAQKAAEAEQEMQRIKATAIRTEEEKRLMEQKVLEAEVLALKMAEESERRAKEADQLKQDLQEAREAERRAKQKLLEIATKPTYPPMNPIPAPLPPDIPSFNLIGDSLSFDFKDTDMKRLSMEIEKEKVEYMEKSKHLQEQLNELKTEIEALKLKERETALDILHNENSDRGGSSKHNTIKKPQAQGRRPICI

variants of: B1; test: reverse yeast two-hybrid deep mutational scan (rY2H-seq): NF2 isoform 7 mutant library as bait mated with wild-type prey strains; selection on medium lacking adenine for non-interacting pairs; NextSeq paired-end sequencing; enrichment vs …; details: with EMILIN1 (elastin microfibril interfacer 1), Q9Y6C2; yeast diploids after mating (RBait_S3 x RPrey_S3), 30 °C, selection for reporter genes on NB agar; human tyrosine kinase ABL2 co-expressed as the active kinase …; HIGHER = WEAKER BINDING (the opposite of display enrichments): higher = stronger loss of interaction: reverse Y2H selects yeast in which bait and prey do NOT interact (growth without adenine), so a …; hits-only table; scale: rY2H score; numbering: uniprot, sequence starts at 1
readoutName: enrichment

Examples with their reported enrichment follow.
A378T | 2.24
A393K | 1.55

(I) M326R
(II) P399R
Returns: the label, I or II , whose recorded enrichment is the lower number. // respond with label for picked entry
I
